# Test system: P388 leukemia
# experiment_notes: ip P388 leukemia mouse model
# Assay type: in vivo, mice (B6D2F1)
# condition_label: B6D2F female mice, ip qDX5
Catalogue of MTD (maximally tolerated dose) readings, one per entry.
All answers are understood in mg/kg, so give the number only.

Q: Tell me the measured MTD (maximally tolerated dose) of C1=C[PH](c2ccccc2)(c2ccccc2)[Cu+]2([PH]1(c1ccccc1)c1ccccc1)[PH](c1ccccc1)(c1ccccc1)C=C[PH]2(c1ccccc1)c1ccccc1.[Cl-] (stereo not shown) , please.
A: 3

Q: Tell me the measured MTD (maximally tolerated dose) of CCP(CC)CCP(CC)CC.CCP(CC)CCP(CC)CC.F[P-](F)(F)(F)(F)F.[Au+] , please.
A: 4

Q: Tell me the measured MTD (maximally tolerated dose) of N#C[O-].[Au+].c1ccc(P(CCP(c2ccccc2)c2ccccc2)c2ccccc2)cc1.c1ccc(P(CCP(c2ccccc2)c2ccccc2)c2ccccc2)cc1 , please.
A: 2

Q: Tell me the measured MTD (maximally tolerated dose) of CCC(O)C(=O)[O-].[Au+].c1ccc(P(CCP(c2ccccc2)c2ccccc2)c2ccccc2)cc1.c1ccc(P(CCP(c2ccccc2)c2ccccc2)c2ccccc2)cc1 , please.
A: 2

Q: Tell me the measured MTD (maximally tolerated dose) of CCP(CC)CCP(c1ccccc1)c1ccccc1.CCP(CC)CCP(c1ccccc1)c1ccccc1.[Cl-].[Cu+] , please.
A: 1.5

Others:
Q: Tell me the measured MTD (maximally tolerated dose) of O=C([O-])CCCO.[Au+].c1ccc(P(CCP(c2ccccc2)c2ccccc2)c2ccccc2)cc1.c1ccc(P(CCP(c2ccccc2)c2ccccc2)c2ccccc2)cc1 , please.
A: 2

Q: Tell me the measured MTD (maximally tolerated dose) of O=S(=O)([O-])C(F)(F)F.[Au+].c1ccc(P(CCP(c2ccccc2)c2ccccc2)c2ccccc2)cc1.c1ccc(P(CCP(c2ccccc2)c2ccccc2)c2ccccc2)cc1 , please.
A: 2

Q: Tell me the measured MTD (maximally tolerated dose) of O=C([O-])C(O)CO.[Au+].c1ccc(P(CCP(c2ccccc2)c2ccccc2)c2ccccc2)cc1.c1ccc(P(CCP(c2ccccc2)c2ccccc2)c2ccccc2)cc1 , please.
A: 2

Q: Tell me the measured MTD (maximally tolerated dose) of [Cl-].[Cu+].c1ccc(P(CCCP(c2ccccc2)c2ccccc2)c2ccccc2)cc1.c1ccc(P(CCCP(c2ccccc2)c2ccccc2)c2ccccc2)cc1 , please.
A: 2

Q: Tell me the measured MTD (maximally tolerated dose) of O=[N+]([O-])[O-].[Au+].c1ccc(P(CCP(c2ccccc2)c2ccccc2)c2ccccc2)cc1.c1ccc(P(CCP(c2ccccc2)c2ccccc2)c2ccccc2)cc1 , please.
A: 3

Q: Tell me the measured MTD (maximally tolerated dose) of O=C([O-])CO.[Au+].c1ccc(P(CCP(c2ccccc2)c2ccccc2)c2ccccc2)cc1.c1ccc(P(CCP(c2ccccc2)c2ccccc2)c2ccccc2)cc1 , please.
A: 2

Q: Tell me the measured MTD (maximally tolerated dose) of O=S(=O)([O-])[O-].c1ccc([PH]2(c3ccccc3)CC[PH](c3ccccc3)(c3ccccc3)[Au+]23[PH](c2ccccc2)(c2ccccc2)CC[PH]3(c2ccccc2)c2ccccc2)cc1.c1ccc([PH]2(c3ccccc3)CC[PH](c3ccccc3)(c3ccccc3)[Au+]23[PH](c2ccccc2)(c2ccccc2)CC[PH]3(c2ccccc2)c2ccccc2)cc1 (stereo not shown) , please.
A: 2

Q: Tell me the measured MTD (maximally tolerated dose) of CC(=O)C(=O)[O-].[Au+].c1ccc(P(CCP(c2ccccc2)c2ccccc2)c2ccccc2)cc1.c1ccc(P(CCP(c2ccccc2)c2ccccc2)c2ccccc2)cc1 , please.
A: 2

Q: Tell me the measured MTD (maximally tolerated dose) of [Au+].[Cl-].c1ccc(P(CCP(c2ccccc2)c2ccccc2)c2ccccc2)cc1.c1ccc(P(CCP(c2ccccc2)c2ccccc2)c2ccccc2)cc1 , please.
A: 2

Q: Tell me the measured MTD (maximally tolerated dose) of CCP(CC)CCP(c1ccccc1)c1ccccc1.CCP(CC)CCP(c1ccccc1)c1ccccc1.[Au+].[Cl-] , please.
A: 3

Q: Tell me the measured MTD (maximally tolerated dose) of O=C([O-])C1OC(O)C(O)C(O)C1O.[Au+].c1ccc(P(CCP(c2ccccc2)c2ccccc2)c2ccccc2)cc1.c1ccc(P(CCP(c2ccccc2)c2ccccc2)c2ccccc2)cc1 , please.
A: 2
